Just for reference, patent US4443436A is where these values come from.

Tested on: Staphylococcus aureus S13E
ASSAY SUMMARY: MIC, standard agar-dilution assay, Staphylococcus aureus S13E
Format: cell-based
TEST CONTEXT: Staphylococcus aureus, S13E
Reported MIC values are given for each entry in this list.
Expressed in µg/mL, but write only the number.

CCC1OC(=O)CC(O)C(C)C(OC2OC(C)C(O)C(N(C)C)C2O)C(CCOC(=O)COc2ccccc2)CC(C)C(=O)C=CC(C)=CC1COC1OC(C)C(O)C(OC)C1OC (centres unmarked)
0.25
CCC1OC(=O)CC(O)C(C)C(OC2OC(C)C(O)C(N(C)C)C2O)C(CCF)CC(C)C(=O)C=CC(C)=CC1COC1OC(C)C(O)C(OC)C1OC (centres unmarked)
0.25
CCC1OC(=O)CC(O)C(C)C(OC2OC(C)C(O)C(N(C)C)C2O)C(CCOC(=O)c2nn(CC)c3cc4c(cc3c2=O)OCO4)CC(C)C(=O)C=CC(C)=CC1COC1OC(C)C(O)C(OC)C1OC (centres unmarked)
4
CCC1OC(=O)CC(O)C(C)C(OC2OC(C)C(OC3CC(C)(O)C(O)C(C)O3)C(N(C)C)C2O)C(CCOc2ccc([N+](=O)[O-])cc2)CC(C)C(=O)C=CC(C)=CC1COC1OC(C)C(O)C(OC)C1OC (centres unmarked)
1
CCC1OC(=O)CC(O)C(C)C(OC2OC(C)C(OC3CC(C)(O)C(O)C(C)O3)C(N(C)C)C2O)C(CCN=[N+]=[N-])CC(C)C(=O)C=CC(C)=CC1COC1OC(C)C(O)C(OC)C1OC (centres unmarked)
1
CCC1OC(=O)CC(O)C(C)C(OC2OC(C)C(OC3CC(C)(O)C(O)C(C)O3)C(N(C)C)C2O)C(CCOC(=O)COc2ccccc2)CC(C)C(=O)C=CC(C)=CC1COC1OC(C)C(O)C(OC)C1OC (centres unmarked)
0.5

Name the recorded MIC of the item CCC1OC(=O)CC(O)C(C)C(OC2OC(C)C(OC3CC(C)(O)C(O)C(C)O3)C(N(C)C)C2O)C(CCOc2ccc(C=O)cc2)CC(C)C(=O)C=CC(C)=CC1COC1OC(C)C(O)C(OC)C1OC (centres unmarked) in your answer.
1

Fill in MIC for record CCC1OC(=O)CC(O)C(C)C(OC2OC(C)C(OC3CC(C)(O)C(O)C(C)O3)C(N(C)C)C2O)C(CCCl)CC(C)C(=O)C=CC(C)=CC1COC1OC(C)C(O)C(OC)C1OC (centres unmarked)
1

* * *

Test system: Streptococcus Group 9960
ASSAY SUMMARY: MIC, standard agar-dilution assay, Streptococcus Group 9960
Type: cell-based
TEST CONTEXT: GROUP9960; Streptococcus Group 9960; agar dilution; read-out: MIC
ENDPOINT: MIC (mg/L)
# value in mg/L; strip the unit string

CCC1OC(=O)CC(O)C(C)C(OC2OC(C)C(O)C(N(C)C)C2O)C(CCOc2ccc(OC)cc2)CC(C)C(=O)C=CC(C)=CC1COC1OC(C)C(O)C(OC)C1OC (stereo not shown)
8

Give recorded MIC. CCC1OC(=O)CC(O)C(C)C(OC2OC(C)C(OC3CC(C)(O)C(O)C(C)O3)C(N(C)C)C2O)C(CCOc2ccccc2)CC(C)C(=O)C=CC(C)=CC1COC1OC(C)C(O)C(OC)C1OC (stereo not shown)
128

Name the recorded MIC of the compound listed here: CCC1OC(=O)CC(O)C(C)C(OC2OC(C)C(O)C(N(C)C)C2O)C(CCOC(C(F)(F)F)C(F)(F)F)CC(C)C(=O)C=CC(C)=CC1COC1OC(C)C(O)C(OC)C1OC (stereo not shown)
32

Complete the entry with MIC for CCC1OC(=O)CC(O)C(C)C(OC2OC(C)C(O)C(N(C)C)C2O)C(CCOC)CC(C)C(=O)C=CC(C)=CC1COC1OC(C)C(O)C(OC)C1OC (stereo not shown)
16

* * *

Attribute: MIC
Tested on: Staphylococcus epidermidis EPI2
ASSAY SUMMARY: MIC, standard agar-dilution assay, Staphylococcus epidermidis EPI2
Type: cell-based
TEST CONTEXT: Staphylococcus epidermidis, EPI2
Your answer is read as µg/mL, so omit the unit and give the number.

Example entries and their recorded answers appear below.
CCC1OC(=O)CC(O)C(C)C(OC2OC(C)C(OC3CC(C)(O)C(O)C(C)O3)C(N(C)C)C2O)C(CCOc2ccc(C=O)cc2)CC(C)C(=O)C=CC(C)=CC1COC1OC(C)C(O)C(OC)C1OC (stereo not drawn)
0.5
CCC1OC(=O)CC(O)C(C)C(OC2OC(C)C(OC3CC(C)(O)C(O)C(C)O3)C(N(C)C)C2O)C(CCSc2ccccc2)CC(C)C(=O)C=CC(C)=CC1COC1OC(C)C(O)C(OC)C1OC (stereo not drawn)
1
CCC1OC(=O)CC(O)C(C)C(OC2OC(C)C(O)C(N(C)C)C2O)C(CC2OCCO2)CC(C)C(=O)C=CC(C)=CC1COC1OC(C)C(O)C(OC)C1OC (stereo not drawn)
0.25
CCC1OC(=O)CC(O)C(C)C(OC2OC(C)C(OC3CC(C)(O)C(O)C(C)O3)C(N(C)C)C2O)C(CCI)CC(C)C(=O)C=CC(C)=CC1COC1OC(C)C(O)C(O)C1OC (stereo not drawn)
2

Output measured MIC for this item: CCC1OC(=O)CC(O)C(C)C(OC2OC(C)C(OC3CC(C)(O)C(O)C(C)O3)C(N(C)C)C2O)C(C)CC(C)C(=O)C=CC(C)=CC1COC1OC(C)C(O)C(O)C1OC (stereo not drawn)
2

Entry CCC1OC(=O)CC(O)C(C)C(OC2OC(C)C(O)C(N(C)C)C2O)C(CCOC(C(F)(F)F)C(F)(F)F)CC(C)C(=O)C=CC(C)=CC1COC1OC(C)C(O)C(OC)C1OC (stereo not drawn) needs its MIC filled in; supply it.
0.25

* * *

Test system: Pasteurella multocida 17E
ASSAY SUMMARY: MIC, broth-dilution microtiter test, Pasteurella multocida 17E
Assay type: cell-based
TEST CONTEXT: Pasteurella multocida 17E; bovine isolate; broth-dilution microtiter
Form field: MIC (one value per entry).
// return numeric value only (unit: µg/mL, not printed)

CCC1OC(=O)CC(O)C(C)C(OC2OC(C)C(O)C(N(C)C)C2OC(C)=O)C(CCOc2ccccc2)CC(C)C(=O)C=CC(C)=CC1COC1OC(C)C(O)C(OC)C1OC (stereo not shown)
25
CCC1OC(=O)CC(O)C(C)C(OC2OC(C)C(O)C(N(C)C)C2O)C(CCOc2ccc(Oc3ccccc3)cc2)CC(C)C(=O)C=CC(C)=CC1COC1OC(C)C(O)C(OC)C1OC (stereo not shown)
25
CCOC(=O)NN(CCC1CC(C)C(=O)C=CC(C)=CC(COC2OC(C)C(O)C(OC)C2OC)C(CC)OC(=O)CC(O)C(C)C1OC1OC(C)C(O)C(N(C)C)C1O)C(=O)OCC (stereo not shown)
25
CCC(=O)OC1C(C)OC(OC2C(CCN3C(=O)c4ccccc4C3=O)CC(C)C(=O)C=CC(C)=CC(COC3OC(C)C(O)C(OC)C3OC)C(CC)OC(=O)CC(O)C2C)C(OC(=O)CC)C1N(C)C (stereo not shown)
25
CCC1OC(=O)CC(O)C(C)C(OC2OC(C)CC(N(C)C)C2O)C(CCOc2ccccc2)CC(C)C(=O)C=CC(C)=CC1COC1OC(C)C(O)C(OC)C1OC (stereo not shown)
12.5

Kindly indicate its recorded MIC. Item: CCC1OC(=O)CC(O)C(C)C(OC2OC(C)C(O)C(N(C)C)C2O)C(CCOc2ccccc2)CC(C)C(=O)C=CC(C)=CC1COC1OC(C)C(O)C(O)C1OC (stereo not shown)
25

Give reported MIC value for CCC1OC(=O)CC(O)C(C)C(OC2OC(C)C(O)C(N(C)C)C2O)C(CCOc2ccc(-c3ccccc3)cc2)CC(C)C(=O)C=CC(C)=CC1COC1OC(C)C(O)C(OC)C1OC (stereo not shown)
12.5

// fetch MIC given entry CCC1OC(=O)CC(O)C(C)C(OC2OC(C)C(O)C(N(C)C)C2O)C(CCOc2cc(Cl)cc(Cl)c2)CC(C)C(=O)C=CC(C)=CC1COC1OC(C)C(O)C(OC)C1OC (stereo not shown)
12.5

* * *

This section presents molecules with their documented MIC values.
System: Streptococcus pyogenes C203
ASSAY SUMMARY: MIC, standard agar-dilution assay, Streptococcus pyogenes C203
Format: cell-based
TEST CONTEXT: Streptococcus pyogenes C203; agar dilution
A complete answer gives the number followed by the unit.

CCC1OC(=O)CC(O)C(C)C(OC2OC(C)C(OC3CC(C)(O)C(O)C(C)O3)C(N(C)C)C2O)C(CCOc2ccccc2)CC(C)C(=O)C=CC(C)=CC1COC1OC(C)C(O)C(O)C1OC (stereo not drawn)
4 µg/mL
CCC1OC(=O)CC(O)C(C)C(OC2OC(C)C(O)C(N(C)C)C2O)C(CCOc2cccnc2)CC(C)C(=O)C=CC(C)=CC1COC1OC(C)C(O)C(OC)C1OC (stereo not drawn)
2 µg/mL
CCC1OC(=O)CC(O)C(C)C(OC2OC(C)C(O)C(N(C)C)C2O)C(CCOc2cccc(Oc3ccccc3)c2)CC(C)C(=O)C=CC(C)=CC1COC1OC(C)C(O)C(OC)C1OC (stereo not drawn)
0.25 µg/mL
CCC1OC(=O)CC(O)C(C)C(OC2OC(C)C(O)C(N(C)C)C2O)C(CCOc2ccc(Oc3ccccc3)cc2)CC(C)C(=O)C=CC(C)=CC1COC1OC(C)C(O)C(OC)C1OC (stereo not drawn)
0.25 µg/mL
CCC1OC(=O)CC(O)C(C)C(OC2OC(C)C(O)C(N(C)C)C2O)C(CCOc2ccccc2)CC(C)C(=O)C=CC(C)=CC1COC1OC(C)C(O)C(O)C1OC (stereo not drawn)
0.06 µg/mL

Answer with reported MIC of CCOC(=O)NN(CCC1CC(C)C(=O)C=CC(C)=CC(COC2OC(C)C(O)C(OC)C2OC)C(CC)OC(=O)CC(O)C(C)C1OC1OC(C)C(O)C(N(C)C)C1O)C(=O)OCC (stereo not drawn)
2 µg/mL

Determine from records and report MIC for CCC1OC(=O)CC(O)C(C)C(OC2OC(C)C(OC3CC(C)(O)C(O)C(C)O3)C(N(C)C)C2OC(C)=O)C(CCOc2ccccc2)CC(C)C(=O)C=CC(C)=CC1COC1OC(C)C(O)C(OC)C1OC (stereo not drawn)
2 µg/mL

Give the measured MIC for CCC1OC(=O)CC(O)C(C)C(OC2OC(C)C(O)C(N(C)C)C2O)C(CCN=[N+]=[N-])CC(C)C(=O)C=CC(C)=CC1COC1OC(C)C(O)C(OC)C1OC (stereo not drawn)
0.25 µg/mL

Tell me its MIC given CCC1OC(=O)CC(O)C(C)C(OC2OC(C)C(O)C(N(C)C)C2OC(C)=O)C(CCOc2ccccc2)CC(C)C(=O)C=CC(C)=CC1COC1OC(C)C(O)C(OC)C1OC (stereo not drawn) as the entry.
1 µg/mL
